Molecular target: G protein-activated inward rectifier potassium channel 2 (Homo sapiens)
Assay: activators of NPY4-receptor-primed GIRK2 channels, summary, cell-based, HEK293, thallium flux (AID 1259324)
Conditions: HEK293 GIRK2/NPY4 cells, thallium flux fluorescence
Out of some 34,000 compounds screened, fewer than 10 were called active. These entries were drawn from the full list.
Recorded metric: outcome

Solved cases (8 shown):
1) Cn1cnc2cc(OC(=O)c3ccc(=O)[nH]n3)ccc21    inactive
2) COc1ccc(CCNC(=O)CCc2sc(C)nc2-c2cccs2)cc1    inactive
3) Cc1nc(-c2cccc(NC(=O)Cc3c(C)[nH]c(=O)[nH]c3=O)c2)cs1    inactive
4) Cc1cccc(NC(=O)c2ccc3nn(CC(=O)Nc4ccc(C)c(F)c4)c(=O)n3c2)c1    inactive
5) O=C(NCCc1ccc(F)cc1)c1cc(=O)c(OCc2ccccc2)co1    inactive; active
6) CCOc1ccc(-c2cc(=O)n(CC(=O)Nc3ccccc3F)cn2)cc1    inactive
7) O=C(Cc1csc(-n2cccc2)n1)Nc1nc2ccccc2s1    inactive
8) COc1cccc(-n2nnnc2SCC(=O)Nc2ccccc2Cl)c1    inactive

List outcome for every entry below, keeping the order given.
1. O=C(NCC(O)c1ccc(C(F)(F)F)cc1)C1(c2cccs2)CCCC1 (configuration not stated)
2. Cc1ccc2nc(C3CC(=O)N(c4ccccc4)C3)[nH]c2c1 (configuration not stated)
3. Cc1cc(C)n(S(=O)(=O)c2cccc(S(C)(=O)=O)c2)n1
4. Cc1cc(S(=O)(=O)NCC(O)c2ccc(C(F)(F)F)cc2)ccc1F (configuration not stated)
5. COc1ccc(S(=O)(=O)NCC(c2ccc(C)cc2)N2CCN(C)CC2)cc1OC (configuration not stated)
6. COc1ccc(NC(=O)N2CCN(c3cc(OC)nc(OC)n3)CC2)cc1
7. COC(=O)c1c2c(nc3c1c(-c1ccccc1)nn3C1CCS(=O)(=O)C1)CCC2 (configuration not stated)

inactive
inactive
inactive
inactive
inactive
inactive
inactive

Hi there! I need outcome for each item below, if you can.
1. O=C(Nc1ccc(Cl)cc1)N1CCC2(CC1)NC(=O)N(CCOc1ccccc1)C2=O
2. COc1ccccc1C1(CNC(=O)Cc2ccc(F)cc2)CCOCC1

1. inactive
2. inactive

List outcome for every entry below, keeping the order given.
1. Cc1cc(-c2nnc(NC(=O)c3cccc(Oc4ccccc4)c3)o2)n(C)n1
2. COc1ccc(NC(=O)c2ccccc2SC)cc1N1CCCCC1=O
3. O=C(NCCCN1CCOC(c2ccccc2)C1)c1cc2ccccc2oc1=O (configuration not stated)
4. CCC(=O)Nc1ccc(SCC(=O)NCC2CCCO2)nn1 (configuration not stated)
5. COCCNC(=O)CCn1cnc2c(cnn2C(C)(C)C)c1=O

["inactive; active", "inactive", "inactive", "inactive", "inactive"]
